B1: PRIM1 (parent)
chain: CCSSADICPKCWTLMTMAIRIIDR

Variants of: B1
Experiment: protein stability index of a GFP-peptide fusion (GPS, HEK-293T) (PSI 1-6); higher = more stable;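 also: lentivirally expressed fusions sorted by FACS into six bins by GFP to DsRed ratio, PSI derived from sequencing read proportions per bin multiplied by bin number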
Details: c terminus: a fixed tail appended
Classification field: enter true (1) for protein stability index values not below 2, false (0) for values below it.

Query: Is the recorded value of protein stability index equal to or greater than 2 for this variant? W12L
Response: false (0)

Query: Is the recorded value of protein stability index equal to or greater than 2 for this variant? S4D
Response: false (0)

Query: Is the recorded value of protein stability index equal to or greater than 2 for this variant? W12P
Response: false (0)

Query: Is the recorded value of protein stability index equal to or greater than 2 for this variant? R24D
Response: true (1)

Query: Is the recorded value of protein stability index equal to or greater than 2 for this variant? K10N
Response: false (0)

Query: Is the recorded value of protein stability index equal to or greater than 2 for this variant? A5P
Response: false (0)

Source listed as the supplement of paper PMC10567573.
